assay-explanation: Solubility at pH 6.2
Type: physicochemical
measurement-conditions: buffer
quantity-measured: solubility (µg/mL)
Answers are plain numbers, in µg/mL.

Prompt line: GET /values?readout=solubility&item= O=C(O)CC(O)CCc1ccc(-c2ccccc2)cc1 (racemic)
Response line: 450

###

tested-system: Matrix metalloproteinase-14 (Homo sapiens, UniProt P50281)
assay-explanation: Inhibition of human recombinant MMP14
quantity-measured: pIC50
Numbers only, as −log10 of the molar value.

- compound: "O=C(O)CC(O)CCc1ccc(-c2ccccc2)cc1 (single isomer, unassigned)"
  pIC50: 4.44

Lab note: next compound to report on.
Prompt line: Report pIC50 for O=C(O)CC(O)CCc1ccc(-c2ccccc2)cc1 (racemic) please.
Response line: 4.36

###

tested-system: Collagenase 3 (Homo sapiens, UniProt P45452)
assay-explanation: Inhibition of human recombinant MMP13
quantity-measured: pIC50
Answers are plain numbers, as −log10 of the molar value.

- molecule: "O=C(O)CC(O)CCc1ccc(-c2ccccc2)cc1 (racemic)"
  pIC50: 4.92
- molecule: "O=C(O)CC(O)CCc1ccc(-c2ccccc2)cc1 (stereo in doubt)"
  pIC50: 4.43

Prompt line: pIC50 for O=C(O)CC(O)CCc1ccc(-c2ccc(Oc3ccccc3)cc2)cc1 (stereo not drawn) ?
Response line: 4.38

The values you see were collected from ChEMBL document CHEMBL1155192.
